# tgt: p38α (Homo sapiens, UniProt Q16539)
# Construct: p38 MAP Kinases are recombinant human full-length proteins with an amino-terminal GST fusion; GST (N)
# Sequence (Q16539 whole entry, the tested form may be a part): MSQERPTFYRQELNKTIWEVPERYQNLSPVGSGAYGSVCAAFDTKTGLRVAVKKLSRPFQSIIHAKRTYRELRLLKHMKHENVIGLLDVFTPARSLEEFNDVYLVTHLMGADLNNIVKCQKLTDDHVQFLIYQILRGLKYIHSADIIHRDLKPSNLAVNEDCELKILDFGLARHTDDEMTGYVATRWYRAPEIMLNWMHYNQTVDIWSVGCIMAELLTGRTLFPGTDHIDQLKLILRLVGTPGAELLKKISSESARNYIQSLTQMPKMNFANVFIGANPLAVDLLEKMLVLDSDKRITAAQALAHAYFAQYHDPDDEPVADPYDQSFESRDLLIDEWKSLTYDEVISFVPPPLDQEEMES
# testName: p38 MAP Kinase assay: inhibition of ATF2 phosphorylation, ELISA
# assaySetup: ATF2 phosphorylation; read-out: [ENZ] P38 ALPHA, IC50, ELISA
# Source text: Compounds of the invention are screened for the ability to inhibit ATF2 phosphorylation by p38 MAP Kinase in vitro. […]
quantityKind: IC50 (nM)

Solved entries (count: 3):
- compound: "O=C(Nc1ccc(Oc2ccnc(NC3CCCCC3)n2)c2ccccc12)c1cc(F)cc(N2CCOCC2)c1"
  outputUnit: "nM"
  IC50: 11.9
- compound: "CC(=O)N1CCN(c2cc(C(=O)Nc3ccc(OCCN4CCOCC4)c4ccccc34)ccn2)CC1"
  outputUnit: "nM"
  IC50: 5750
- compound: "N#CNc1nccc(Oc2ccc(NC(=O)c3cc(F)cc(N4CCOCC4)c3)c3ccccc23)n1"
  outputUnit: "nM"
  IC50: 51.5

[1] COC(CN(C)c1nccc(Oc2ccc(NC(=O)c3cc(F)cc(N4CCCCC4)c3)c3ccccc23)n1)OC
[2] C#CCN(C)c1nccc(Oc2ccc(NC(=O)c3cc(F)cc(N4CCOCC4)c3)c3ccccc23)n1
Could you point out whether the larger IC50 belongs to 1 or to 2 ? Lab log: write the label of the selected item as the result.
1
